# Tested on: OVCAR-5
# method notes: NCI tumour cell line growth inhibition, 48 h
The source made the active and inactive calls. Cut-off read from the data, not from the text of the source: active = GI50 up to about 1.1 µM and inactive = higher.
value kind: GI50

Sc1nnc(SCc2ccccc2Cl)c2nc[nH]c12: > 100 µM (inactive)
Clc1n[nH]c2ccccc12: > 100 µM (inactive)
O=C1C2=Cc3ccccc3OC2(O)Oc2cc(O)cc(O)c21 (stereo unspecified): > 100 µM (inactive)
CCc1cccc(C)c1N1C(=O)C(=O)C(c2nc3ccccc3o2)C(=O)C1=O: > 100 µM (inactive)

*Q* State the recorded GI50 for this entry: NC(=S)N/N=C1\CCCC1C(O)(C(F)(F)Cl)C(F)(F)Cl (stereo unspecified)
*A* > 10 µM (inactive)

*Q* State the recorded GI50 for this entry: COC(=O)Nc1nc2cc(S(=O)(=O)N3CCOCC3)ccc2[nH]1
*A* > 100 µM (inactive)

====

# System: SNB-19
# method notes: NCI tumour cell line growth inhibition, 48 h
Active and inactive are the calls of the source. Cut-off read from the data, not from the text of the source: active = GI50 up to about 1.1 µM and inactive = higher.
value kind: GI50

CCCCCCCCCCCCCP(=O)(OC)OC: 20.8 µM (inactive)

*Q* State the recorded GI50 for this entry: COC(=O)C1CC2C=CC=CC(=O)C2(C)C1 (stereo not drawn)
*A* 76.7 µM (inactive)

*Q* State the recorded GI50 for this entry: N#CCCN(CCCN(CCCN(C(=O)Nc1ccccc1)c1ccccc1)C(=O)Nc1ccccc1)C(=O)Nc1ccccc1
*A* > 8.75 µM (inactive)

*Q* State the recorded GI50 for this entry: COc1ccc(C2=NN(c3ccccc3)C[N+](c3ccc(OC)cc3)=N2)cc1
*A* 28.4 µM (inactive)

*Q* State the recorded GI50 for this entry: CC(=O)C(C)C(=O)N1C(=O)N(C)C2(C)N(C)C(=O)NC12C (stereo not drawn)
*A* > 100 µM (inactive)

*Q* State the recorded GI50 for this entry: CC12CC(c3ccccc3O1)C(C(=O)Nc1cccc(F)c1)C(=O)N2 (stereo not drawn)
*A* > 100 µM (inactive)

*Q* State the recorded GI50 for this entry: CC12CCC(=O)N1[C@@H](c1ccccc1)[C@@H](c1ccccc1)O2 (stereo partly drawn)
*A* > 100 µM (inactive)

*Q* State the recorded GI50 for this entry: Clc1ccc(C(SCc2ccccc2)SCc2ccccc2)cc1
*A* > 10 µM (inactive)

*Q* State the recorded GI50 for this entry: O=S(=O)(O)c1ccc2c(/N=N/c3ccccc3)c(O)ccc2c1
*A* > 100 µM (inactive)

*Q* State the recorded GI50 for this entry: CC(C)=NN/C(=N\c1ccc(Cl)cc1)NS(=O)(=O)c1cc2ccccc2s1
*A* > 100 µM (inactive)

*Q* State the recorded GI50 for this entry: CCOC(=O)CCSS(=O)(=O)C(F)(F)F
*A* > 100 µM (inactive)

*Q* State the recorded GI50 for this entry: Cc1cc(=O)n2c3c(c4c(cc13)c(CO)cc(=O)n4C)OC2
*A* 10.5 µM (inactive)

*Q* State the recorded GI50 for this entry: COc1ccc(C2C(C#N)=C(S)N(C3OC(CO)C(O)C(O)C3O)C(c3ccccc3)=C2C(C)=O)cc1 (stereo not drawn)
*A* 89.3 µM (inactive)

*Q* State the recorded GI50 for this entry: N#C/C(N)=N/c1ccccc1
*A* > 100 µM (inactive)

*Q* State the recorded GI50 for this entry: O=C(CSc1nnc(Cc2ccccc2)o1)Nc1cccc(Cl)c1
*A* > 100 µM (inactive)

====

# System: SK-MEL-2
# method notes: NCI tumour cell line growth inhibition, 48 h
Active and inactive are the calls of the source. Cut-off read from the data, not from the text of the source: active = GI50 up to about 1.1 µM and inactive = higher.
Below, each of the molecules is paired with its reported GI50 value.

O=S(=O)(c1ccccc1)[C@H]1[C@@H]2O[C@@H]2C[C@@H]1O: > 100 µM (inactive)
COC(C(O)CO)C(O)C(O)C(=O)NNc1ccccc1 (stereo not drawn): 38.9 µM (inactive)
COc1ccc(/C=C(/c2ccc(OC)cc2)c2c(Cl)cc(Cl)c(/C(=C\c3ccc(OC)cc3)c3ccc(OC)cc3)c2/N=N/c2ccccc2)cc1: > 100 µM (inactive)
O=C(NC(Cc1ccc(I)cc1)C(=O)O)c1ccc(I)cc1 (stereo not drawn): > 80.4 µM (inactive)
O=C1CC(=O)c2c(O)cc(O)c(c2O)-c2c(ccc(O)c2O)C2=CC(=O)c3c(O)cc(O)c(c3O2)-c2c1ccc(O)c2O.O=C1CC2(O)Oc3c1c(O)cc(O)c3-c1c(ccc(O)c1O)-c1cc(=O)c3c(O)cc(O)c(c3o1)-c1c2ccc(O)c1O: > 50 µM (inactive)
N#C/C(=C\c1ccc(O)c(O)c1)C(N)=S: > 100 µM (inactive)
Fc1ccccc1C1CC(C(c2ccccc2)c2ccccc2)=Nc2ccccc2S1 (stereo not drawn): 7.89 µM (inactive)

Okay, next one:
*Q* State the recorded GI50 for this entry: C1=N\CCNCC/N=C\c2ccc(cc2)OCc2cccc(n2)COc2ccc/1cc2
*A* 70.3 µM (inactive)

====

# System: MDA-MB-435
# method notes: NCI tumour cell line growth inhibition, 48 h
Activity calls are given as the source filed them. Rule as the data show it: active = GI50 up to about 1.1 µM and inactive = higher.
Your answer must be one of the following: active, inactive

CC(=O)OCC1OC(n2c(N)c(C#N)c(-c3cccc(Cl)c3)c(C#N)c2=S)C(OC(C)=O)C(OC(C)=O)C1OC(C)=O (configuration not stated): inactive
COC(=O)c1ccc(C)cc1CC1Cc2c(C)cccc2C1=O (configuration not stated): inactive
Sc1nnc(SCc2ccccc2Cl)c2nc[nH]c12: inactive
Cc1cc([C@H](C#N)c2nc3ccccc3s2)nc(Cl)n1: inactive
CNC(=S)N/N=C(\C)c1ccc(OC)cc1O: inactive

*Q* // return assay outcome for CN1CC[C@]2(c3cccc(O)c3)CC(=O)/C(=C/c3ccc(Cl)c(Cl)c3)[C@@H]1C2
*A* active

*Q* // return assay outcome for N=C(N)N/N=C/c1c(Cl)nc2sccn12
*A* inactive

*Q* // return assay outcome for CC(C)=CCC[C@](C)(O[C@@H]1O[C@H](CO)[C@@H](O)[C@H](O)[C@H]1O)[C@H]1CC[C@]2(C)[C@@H]1[C@H](O)C[C@@H]1[C@@]3(C)CC[C@H](O)C(C)(C)[C@@H]3[C@@H](O[C@@H]3O[C@H](CO)[C@@H](O)[C@H](O)[C@H]3O)C[C@]12C [GINSENOSIDE RG1]
*A* inactive

*Q* // return assay outcome for O=C1C[C@H](COCc2ccccc2)NC(=O)C[C@H](COCc2ccccc2)NC(=O)C[C@H](COCc2ccccc2)N1
*A* inactive

*Q* // return assay outcome for CC1(C)CS(=O)(=O)CC(C)(C)C(=N/N)/C1=N\N
*A* inactive

*Q* // return assay outcome for O=C(c1ccccc1)c1ccc2nc3n(c2c1)C(c1c(Cl)cccc1Cl)SC3 (configuration not stated)
*A* inactive

*Q* // return assay outcome for CCOC(=O)CCSc1nc2ccc(I)cc2c(=O)n1Cc1ccccc1
*A* inactive

====

# Test system: K562
# method notes: NCI tumour cell line growth inhibition, 48 h
Calls of active or inactive are those of the source. Rule as the data show it: active = GI50 up to about 1.1 µM and inactive = higher.
Your answer must be one of the following: active, inactive

O=C(O)CCN(CCCN(CCC(=O)O)CCC(=O)O)CCC(=O)O: inactive
CC12OC(=O)[C@@]3(O)CCC4C(C[C@H]5O[C@]56CC=CC(=O)[C@]46C)C45OC[C@H]6C(=O)O[C@@H]1C[C@@]6(C)[C@H](C4=O)C23O5 (some centres undefined): active
CC(=O)O[C@@H]1[C@H]2[C@@H](OC(=O)c3ccccc3)[C@@H](C)C[C@]2(O)[C@H](OC(C)=O)[C@@]2(C)[C@@H]3C[C@@](C)(OC(C)=O)C[C@@H](OC(C)=O)[C@@]3(OC(C)=O)C[C@@]12C: inactive

*Q* // return assay outcome for O=C(CC(C(=O)c1cccs1)c1ccsc1)c1ccc(Cl)s1 (centres undefined)
*A* inactive

*Q* // return assay outcome for CSC(=O)c1sc(SC)[n+](-c2ccccc2)c1O
*A* inactive

*Q* // return assay outcome for CCOC(=O)c1cccc(NC(=O)CI)c1
*A* active

====

# Test system: HL-60
# method notes: NCI tumour cell line growth inhibition, 48 h
Activity calls are given as the source filed them. Rule as the data show it: active = GI50 up to about 1.1 µM and inactive = higher.
Your answer must be one of the following: active, inactive

Consider the worked cases shown below.
O=C1OC(CC(=O)c2ccc(Cl)cc2)C(Cl)=C1Cl (centres undefined): inactive
COC(=O)C1=CC(NC(=O)OCc2ccccc2)C(C(=O)c2ccccc2)C[C@@H]1Sc1ccccc1 (some centres undefined): active
N#Cc1cccc(N2C(=O)c3ccc(C(=O)c4ccc5c(c4)C(=O)N(c4cccc(C#N)c4)C5=O)cc3C2=O)c1: inactive

*Q* // return assay outcome for CC(C)NCCNC(=O)c1ccccc1Nc1c(Cl)cccc1Cl
*A* inactive

*Q* // return assay outcome for CC(C)(CN1CCCCC1)C(=O)/C=C/c1ccc(Cl)c(Cl)c1
*A* inactive

*Q* // return assay outcome for Cc1ccc([C@@H]2[C@@H](C(=O)c3ccccn3)[C@H](c3ccc(C)cc3)C[C@](O)(c3ccccn3)[C@H]2C(=O)c2ccccn2)cc1
*A* inactive

*Q* // return assay outcome for CCC(Nc1ncnc2nc[nH]c12)C(=O)O (centres undefined)
*A* inactive

*Q* // return assay outcome for C(=N\N=C1NCCCN1)/c1ccc2ccccc2c1
*A* inactive

*Q* // return assay outcome for COC1C(O)=C2C(=O)O/C(C)=C/C=C/C=C/C=C\CC(c3ccccc3)NC(=O)\C=C/C=C\C=C\C=C\[C@@]2(C)[C@@H]1O (some centres undefined)
*A* active

Values compiled from ChEMBL document CHEMBL1201862.
